Listed sequences paired with reported protein stability index
# Tested on: Saccharomyces cerevisiae
# assay_explanation: protein stability index of tFT-peptide fusion (C-terminal peptide) (PSI (0-1 scale)); higher = more stable (slower turnover)
# run_conditions: genetic background: wild type; temperature: 30 C

{"ordered_residues": "RGFVVFCIPCFV", "protein stability index": 0.339}
{"ordered_residues": "PWKDPSLLLHRS", "protein stability index": 0.743}
{"ordered_residues": "APPFRLLPLPSP", "protein stability index": 0.757}
{"ordered_residues": "LFLYPFCVGGFL", "protein stability index": 0.714}
{"ordered_residues": "DGPGFNVCLRCK", "protein stability index": 0.708}
{"ordered_residues": "AVAERGRPPLKE", "protein stability index": 0.689}
{"ordered_residues": "PPPPPSAISPTH", "protein stability index": 0.732}
{"ordered_residues": "AGWCKGMWVSLG", "protein stability index": 0.656}
{"ordered_residues": "VAAFGGGPTNGV", "protein stability index": 0.724}
{"ordered_residues": "VFDGSVSWARHD", "protein stability index": 0.653}
{"ordered_residues": "QSRERDGSIRNP", "protein stability index": 0.644}
{"ordered_residues": "RCRCPHFLCRFS", "protein stability index": 0.616}
{"ordered_residues": "EFFSFPLTPYAL", "protein stability index": 0.818}
{"ordered_residues": "IWTRAFAPSNRF", "protein stability index": 0.715}
{"ordered_residues": "LCCLSSLAMLFF", "protein stability index": 0.7}
{"ordered_residues": "CFDALLPEELSS", "protein stability index": 0.696}
{"ordered_residues": "SVLCLFSRLRSV", "protein stability index": 0.354}
{"ordered_residues": "PSPPPPPPPSVR", "protein stability index": 0.69}
{"ordered_residues": "LRWGLFSLAWVT", "protein stability index": 0.544}

###

# System: Saccharomyces cerevisiae
# assay_explanation: protein stability index of tFT-peptide fusion (C-terminal peptide) (PSI (0-1 scale)); higher = more stable (slower turnover)
# run_conditions: genetic background: das1 deletion; temperature: 30 C
Listed sequences paired with reported protein stability index

{"ordered_residues": "KQRFLLCWSTKL [YHR131W-A C-terminal 12 aa]", "protein stability index": 0.693}
{"ordered_residues": "VAKAEKLAAEAN [ATP2 C-terminal 12 aa]", "protein stability index": 0.684}
{"ordered_residues": "GSTSCPLLRLSR [YHR073C-B C-terminal 12 aa]", "protein stability index": 0.707}
{"ordered_residues": "AQGKLIMNVEKF [AST1 C-terminal 12 aa]", "protein stability index": 0.712}
{"ordered_residues": "AQQNYRLWLSSF [ICY1 C-terminal 12 aa]", "protein stability index": 0.717}
{"ordered_residues": "PKSNMYYSWTQL [ORC4 C-terminal 12 aa]", "protein stability index": 0.711}

###

Listed sequences paired with reported protein stability index
# Test system: Saccharomyces cerevisiae
# assay_explanation: protein stability index of tFT-peptide fusion (C-terminal peptide) (PSI (0-1 scale)); higher = more stable (slower turnover)
# run_conditions: genetic background: wild type; temperature: 30 C

{"ordered_residues": "CVFSCLLATVFL", "protein stability index": 0.533}
{"ordered_residues": "RLSGWGLGVWQE", "protein stability index": 0.681}
{"ordered_residues": "GRGGLGWWEWDR", "protein stability index": 0.746}
{"ordered_residues": "SSTALAFAPYLL", "protein stability index": 0.689}
{"ordered_residues": "GVCRVAVGGGAT", "protein stability index": 0.713}
{"ordered_residues": "LGPAPFSPPPPL", "protein stability index": 0.738}
{"ordered_residues": "FVSPVPPRRVGA", "protein stability index": 0.704}
{"ordered_residues": "YRALRRAFENKI", "protein stability index": 0.633}
{"ordered_residues": "RRVPPGTPCGTR", "protein stability index": 0.708}
{"ordered_residues": "PPPPAPPPLLLP", "protein stability index": 0.717}

###

# Tested on: Saccharomyces cerevisiae
# assay_explanation: protein stability index of tFT-peptide fusion (C-terminal peptide) (PSI (0-1 scale)); higher = more stable (slower turnover)
# run_conditions: genetic background: wild type; temperature: 30 C
Rule: protein stability index of 0.7 or more gives t; anything lower gives f.

{"ordered_residues": "GVRRPYRSDLRL", "assigned_category": "f"}
{"ordered_residues": "ASRRSGSYTGYR", "assigned_category": "f"}
{"ordered_residues": "GVGGGRRGGGGG", "assigned_category": "f"}
{"ordered_residues": "LTLCYGRLPPRL", "assigned_category": "t"}
{"ordered_residues": "KREMCHRYTRRS", "assigned_category": "f"}
{"ordered_residues": "NGILRGATYQDV", "assigned_category": "t"}
{"ordered_residues": "AKPPLAPSRNAL", "assigned_category": "f"}
{"ordered_residues": "GVAVVSGREGRG", "assigned_category": "t"}
{"ordered_residues": "GGRGSRWAGPRC", "assigned_category": "f"}
{"ordered_residues": "GELPGLFRCCLM", "assigned_category": "f"}
{"ordered_residues": "GLPRCMDWSIRR", "assigned_category": "f"}
{"ordered_residues": "YPPLSYSFCHRP", "assigned_category": "f"}
{"ordered_residues": "VSLSEVAIIVHG", "assigned_category": "f"}
{"ordered_residues": "ACLLCVCVESRE", "assigned_category": "f"}
{"ordered_residues": "PRALSMGGPRYQ", "assigned_category": "f"}
{"ordered_residues": "VFSLFLVLNYPF", "assigned_category": "f"}
{"ordered_residues": "AFRCGGAPGDFA", "assigned_category": "f"}
{"ordered_residues": "LFALRLLSREGI", "assigned_category": "f"}
{"ordered_residues": "EWGGGGGGGKCV", "assigned_category": "t"}
{"ordered_residues": "HFSDLIRFFFFA", "assigned_category": "f"}
{"ordered_residues": "HQRGGPLPSSRR", "assigned_category": "t"}
{"ordered_residues": "FLISSGPSVSVL", "assigned_category": "f"}
{"ordered_residues": "PLPFSPPFPPSS", "assigned_category": "t"}
{"ordered_residues": "PVLELTLILRRS", "assigned_category": "f"}
{"ordered_residues": "ALMEFLVFSRCG", "assigned_category": "f"}
{"ordered_residues": "PLPTPHPHKPYQ", "assigned_category": "t"}

###

# System: Saccharomyces cerevisiae
# assay_explanation: protein stability index of tFT-peptide fusion (C-terminal peptide) (PSI (0-1 scale)); higher = more stable (slower turnover)
# run_conditions: genetic background: wild type; temperature: 30 C

{"ordered_residues": "CSPSDCGWQLVL", "protein stability index": 0.604}
{"ordered_residues": "IESRGCSMQKRL", "protein stability index": 0.749}
{"ordered_residues": "LVLVVFCPLWFW", "protein stability index": 0.436}
{"ordered_residues": "SFAQANRYLTSL", "protein stability index": 0.699}
{"ordered_residues": "LFVPAASRLAFS", "protein stability index": 0.686}
{"ordered_residues": "APRPAPRPTPLG", "protein stability index": 0.706}
{"ordered_residues": "NNQIQKKMYQTN", "protein stability index": 0.35}
{"ordered_residues": "DSPPRATFSAPR", "protein stability index": 0.69}
{"ordered_residues": "CGFVFFVLVVFW", "protein stability index": 0.15}
{"ordered_residues": "GGGGGRAYSWWV", "protein stability index": 0.699}
{"ordered_residues": "VSLHVFVFLLAS", "protein stability index": 0.309}
{"ordered_residues": "SFCSFVFVTFVL", "protein stability index": 0.455}
{"ordered_residues": "PKSFLRRLRGWA", "protein stability index": 0.701}
{"ordered_residues": "YVSLPFVVWWFC", "protein stability index": 0.309}
{"ordered_residues": "WLCLGLVVGLFL", "protein stability index": 0.433}
{"ordered_residues": "VCLVAGVFFCLL", "protein stability index": 0.629}
{"ordered_residues": "TKKKTKKKEQKE", "protein stability index": 0.663}
{"ordered_residues": "SSPPPPALPEYQ", "protein stability index": 0.699}
{"ordered_residues": "SRGVLLCHCSIA", "protein stability index": 0.758}
{"ordered_residues": "CFVSFLHLLYFS", "protein stability index": 0.362}
{"ordered_residues": "YGVLEYLRDLVF", "protein stability index": 0.689}
{"ordered_residues": "PSLDCMSIEETT", "protein stability index": 0.679}
{"ordered_residues": "WVGGGLVVFGWK", "protein stability index": 0.694}
{"ordered_residues": "HSAPDLPPLPRV", "protein stability index": 0.711}
{"ordered_residues": "LVTSACPVPPAR", "protein stability index": 0.577}
{"ordered_residues": "AIRLFFRSDARG", "protein stability index": 0.618}
{"ordered_residues": "GEQSYGGHSVQT", "protein stability index": 0.642}
{"ordered_residues": "PHAHTAPPPVPP", "protein stability index": 0.601}
{"ordered_residues": "YIQGAPGGLGYP", "protein stability index": 0.713}
{"ordered_residues": "PCPETPLLTRAA", "protein stability index": 0.651}
{"ordered_residues": "RVPPAIPSRRAC", "protein stability index": 0.682}
{"ordered_residues": "PHPNHRGPKGAN", "protein stability index": 0.686}
{"ordered_residues": "PFSIVRRSSFAP", "protein stability index": 0.659}
{"ordered_residues": "DAVRRSSLSLAT", "protein stability index": 0.711}
{"ordered_residues": "AGMRRRGGAGGW", "protein stability index": 0.684}
{"ordered_residues": "KDGMATKCIAYT", "protein stability index": 0.657}
{"ordered_residues": "VFSGVTTILVRT", "protein stability index": 0.539}
{"ordered_residues": "PVAGTLDVHYRV", "protein stability index": 0.71}
{"ordered_residues": "LADLLRCSYSLS", "protein stability index": 0.677}
{"ordered_residues": "LSTPFFFVPLTL", "protein stability index": 0.621}
{"ordered_residues": "GYWPWGLARVDV", "protein stability index": 0.698}
{"ordered_residues": "SRVPTSRARKRS", "protein stability index": 0.7}
{"ordered_residues": "RRNSAGCRLDKM", "protein stability index": 0.662}
{"ordered_residues": "PPPLPPIPSRPH", "protein stability index": 0.701}
{"ordered_residues": "SLPLIPCPSPPL", "protein stability index": 0.751}
{"ordered_residues": "KREKENIAKSSV", "protein stability index": 0.718}
{"ordered_residues": "RSMLRVELSGVA", "protein stability index": 0.562}
{"ordered_residues": "TVSGPKTNLGQA", "protein stability index": 0.71}
{"ordered_residues": "GNAKKRKNKEKK", "protein stability index": 0.651}
{"ordered_residues": "KKDQEKEKKGKE", "protein stability index": 0.613}
{"ordered_residues": "FLWSSLYYARLD", "protein stability index": 0.75}
{"ordered_residues": "GSVGFPDRLLCL", "protein stability index": 0.73}
{"ordered_residues": "PPPPLRPPAAPP", "protein stability index": 0.639}
{"ordered_residues": "KKKKHKNRKEKQ", "protein stability index": 0.692}
{"ordered_residues": "SGCVLCLCCYMV", "protein stability index": 0.666}
{"ordered_residues": "PSPPPPGPPLAL", "protein stability index": 0.632}
{"ordered_residues": "KILRKVIKQKGN", "protein stability index": 0.599}
{"ordered_residues": "RIPIGDSHIALK", "protein stability index": 0.692}
{"ordered_residues": "APPRSPLFSSLF", "protein stability index": 0.638}
{"ordered_residues": "YRAHAYPYVPRS", "protein stability index": 0.682}
{"ordered_residues": "DMAVYLVSVSRV", "protein stability index": 0.609}
{"ordered_residues": "VTEGMKEVIKQI", "protein stability index": 0.482}
{"ordered_residues": "LPVGYVCGLWVG", "protein stability index": 0.543}
{"ordered_residues": "YLFFSCIFTFSC", "protein stability index": 0.316}
{"ordered_residues": "LPPLPPPSPFPS", "protein stability index": 0.762}
{"ordered_residues": "PLPRSPLHPSVP", "protein stability index": 0.74}
{"ordered_residues": "PPRVPCLVPKSR", "protein stability index": 0.715}
{"ordered_residues": "PPSSPPLQHPPP", "protein stability index": 0.598}
{"ordered_residues": "GWGHYFGLIREQ", "protein stability index": 0.698}
{"ordered_residues": "ERARSRGGGGCV", "protein stability index": 0.632}
{"ordered_residues": "SPSTSPPPSSSS", "protein stability index": 0.697}
{"ordered_residues": "CGWFVSVGWRLG", "protein stability index": 0.25}
{"ordered_residues": "PNPPPPPPPSSP", "protein stability index": 0.742}
{"ordered_residues": "PFHSPLMPAHSH", "protein stability index": 0.764}
{"ordered_residues": "KKYETNENNQKK", "protein stability index": 0.686}
{"ordered_residues": "RASPFPAMSAQV", "protein stability index": 0.684}
{"ordered_residues": "AVWGWAFASVGG", "protein stability index": 0.735}
{"ordered_residues": "EARFLWLTFLFG", "protein stability index": 0.546}
{"ordered_residues": "VSHVRVNESAAN", "protein stability index": 0.677}
{"ordered_residues": "GRRGGGTGAPSR", "protein stability index": 0.65}
{"ordered_residues": "TPGLVRVGSVSF", "protein stability index": 0.708}
{"ordered_residues": "PPPTPSSLLSTP", "protein stability index": 0.701}
